ASSAYED SYSTEM: UniProtKB P09668
Sequence (P09668 116-335 limits assumed, other chains not shown): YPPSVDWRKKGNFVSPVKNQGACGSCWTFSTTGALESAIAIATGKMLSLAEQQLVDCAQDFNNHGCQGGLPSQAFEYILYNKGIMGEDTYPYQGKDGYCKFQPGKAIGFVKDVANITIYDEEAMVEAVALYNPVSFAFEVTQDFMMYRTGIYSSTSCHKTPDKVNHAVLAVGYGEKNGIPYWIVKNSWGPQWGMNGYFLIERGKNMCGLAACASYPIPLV
PROTOCOL NOTES: Inhibition of human recombinant cathepsin H
pIC50: −log10 of the molar value.
MEASURED PROPERTY: pIC50

Prompt: Give the measured pIC50 for Cc1cccc(O[C@H]2CCN3C[C@H]2OC3=O)c1C (relative stereo)
Response: 5.58

Prompt: For the molecule Cc1cccc(O[C@@H]2CCNC[C@@H]2O)c1C , report pIC50.
Response: < 4.00

Prompt: Entry O=C1O[C@H]2CN1CC[C@@H]2Br needs its pIC50 filled in; supply it.
Response: < 4.00

Prompt: Tell me its pIC50 given Cc1cccc(OCC2CN(C)C(=O)O2)c1C (centres undefined) as the entry.
Response: < 4.00
